TGI: recorded values
- Test system: DLD-1 colon
- experiment.description: NCI tumour cell line growth inhibition, 48 h

get_value(item= CCN1CCC(O)(c2ccc(C)cc2)C(C(=O)c2ccc(C)cc2)C1 (configuration not stated) , readout=TGI) returns 33.4 µM

get_value(item= `COc1cccc(-c2cc(=O)c3cc(OC)c(OC)cc3[nH]2)c1` , readout=TGI) returns > 100 µM

get_value(item= Cc1[nH]c2ccccc2c1C1Cc2ccccc2N1C(=O)/C=C/C=C/c1ccccc1 (configuration not stated) , readout=TGI) returns > 100 µM

get_value(item= `O=C(O)CCCCCCC[C@@H]1S[C@H]1CCCCCCO` , readout=TGI) returns > 100 µM

get_value(item= `COc1ccc2c(=O)c(C)c(-c3ccccc3)oc2c1CN(C)C` , readout=TGI) returns > 100 µM

get_value(item= `CC(=O)[CH-]C(=O)c1ccccc1.CC(=O)[CH-]C(=O)c1ccccc1.CC[O-].CC[O-].[Zr+4]` , readout=TGI) returns > 100 µM

get_value(item= `CCC(C)(C)C(=O)O[C@H]1C[C@@H](C)C=C2C=C[C@H](C)[C@H](CC[C@@H]3C[C@@H](O)CC(=O)O3)[C@H]21` , readout=TGI) returns > 30 µM

----------
- System: SNB-75 CNS
- experiment.description: NCI tumour cell line growth inhibition, 48 h
TGI: recorded values

// known answers, use as guide
Lab entry: SNB-75 CNS assay, compound `COc1ccc2c(c1)c(=O)c1ccccc1n2/C=C/C(=O)O` , TGI = > 100 µM

Lab entry: SNB-75 CNS assay, compound `CCc1n[nH]c(=S)n1/N=C\c1ccc(-c2ccccc2Cl)o1` , TGI = > 100 µM

Lab entry: SNB-75 CNS assay, compound `COc1ccc2c(c1)c(-c1ccc(-c3cn(S(=O)(=O)c4ccccc4)c4ccc(OC)cc34)s1)cn2S(=O)(=O)c1ccccc1` , TGI = > 100 µM

Lab entry: SNB-75 CNS assay, compound `Cn1c2ccccc2c2c(-c3ccccc3)[n+]3ccccc3nc21` , TGI = > 100 µM

***
Lab entry: SNB-75 CNS assay, compound CC(=O)C1C(=O)C(=O)N(c2cccc(C)c2C)C1=O (stereo unspecified) , TGI = > 100 µM

Lab entry: SNB-75 CNS assay, compound `Cc1nc(C)c(C(=O)NNC(=O)Cc2ccccc2)cc1C(=O)NNC(=O)Cc1ccccc1` , TGI = > 100 µM

Lab entry: SNB-75 CNS assay, compound CC(=O)OC(/C=C1/C=CC(=O)O1)COC(=O)c1ccccc1 (stereo unspecified) , TGI = > 31.2 µM

Lab entry: SNB-75 CNS assay, compound `CC1=NN(c2ccccc2)C(=O)C1=C1SCCS1` , TGI = > 100 µM

Lab entry: SNB-75 CNS assay, compound `O=C(/C=C(\O)c1ccc(Cl)cc1)C(=O)N=Nc1c(O)[nH]c2ccc(Br)cc12` , TGI = > 100 µM

Lab entry: SNB-75 CNS assay, compound `O=S(=O)(/C=C/c1ccc(Cl)cc1Cl)Cc1ccccc1CS(=O)(=O)/C=C/c1ccc(Cl)cc1Cl` , TGI = > 100 µM

Lab entry: SNB-75 CNS assay, compound `O=C1/C(=C\c2ccc(Cl)cc2Cl)Sc2scc(-c3cccc([N+](=O)[O-])c3)[n+]21` , TGI = > 69.8 µM
